experimental-details: In vivo pharmacokinetic studies
Design: species or system SD rats
setup-conditions: Sprague-Dawley (SD), rat, plasma, po; SD rats; p.o; 10 mg/kg
result-type: AUC (ng·h/mL)
Write down the numeric answer in ng·h/mL and omit the unit.

query: For the molecule shown here, `NC(N)=NCCC[C@H](NCN1CCN(C(=O)c2cc(Cc3n[nH]c(=O)c4ccccc34)ccc2F)CC1)C(=O)O` , give the reported AUC.
result: 8020

* * *

target: CK1δ (Homo sapiens, UniProt P48730)
Sequence (P48730 whole entry): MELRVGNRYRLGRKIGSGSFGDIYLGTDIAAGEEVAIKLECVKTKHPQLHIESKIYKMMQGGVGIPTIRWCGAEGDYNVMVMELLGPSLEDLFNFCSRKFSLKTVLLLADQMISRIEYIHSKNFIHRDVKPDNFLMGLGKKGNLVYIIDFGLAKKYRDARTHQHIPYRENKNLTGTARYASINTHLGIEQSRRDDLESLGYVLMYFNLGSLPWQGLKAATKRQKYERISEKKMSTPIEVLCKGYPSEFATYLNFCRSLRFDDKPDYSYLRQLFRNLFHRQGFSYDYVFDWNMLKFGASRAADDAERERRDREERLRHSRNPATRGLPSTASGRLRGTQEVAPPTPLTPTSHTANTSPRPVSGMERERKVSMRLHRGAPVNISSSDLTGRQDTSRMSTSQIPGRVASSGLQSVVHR
pIC50: −log10 of the molar value.
result-type: pIC50

query: For the compound shown here, `NC(N)=NCCC[C@H](NCN1CCN(C(=O)c2cc(Cc3n[nH]c(=O)c4ccccc34)ccc2F)CC1)C(=O)O` , give the reported pIC50.
result: < 5.00

* * *

target: CSK (Homo sapiens, UniProt P41240)
Sequence (P41240 whole entry): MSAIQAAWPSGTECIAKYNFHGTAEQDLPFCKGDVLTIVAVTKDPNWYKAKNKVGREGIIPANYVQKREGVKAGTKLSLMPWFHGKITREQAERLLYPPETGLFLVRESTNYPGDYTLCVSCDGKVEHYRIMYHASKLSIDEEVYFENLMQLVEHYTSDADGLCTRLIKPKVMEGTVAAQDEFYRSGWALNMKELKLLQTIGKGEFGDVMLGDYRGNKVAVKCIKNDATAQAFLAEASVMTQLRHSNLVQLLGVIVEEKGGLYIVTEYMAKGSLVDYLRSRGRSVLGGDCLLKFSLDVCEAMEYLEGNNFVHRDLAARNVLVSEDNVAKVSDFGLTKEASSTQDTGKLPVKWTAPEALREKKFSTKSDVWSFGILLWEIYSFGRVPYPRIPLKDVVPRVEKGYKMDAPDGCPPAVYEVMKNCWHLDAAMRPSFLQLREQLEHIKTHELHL
pIC50: −log10 of the molar value.
result-type: pIC50

query: For the compound shown here, `NC(N)=NCCC[C@H](NCN1CCN(C(=O)c2cc(Cc3n[nH]c(=O)c4ccccc34)ccc2F)CC1)C(=O)O` , give the reported pIC50.
result: < 5.00

* * *

Target chain: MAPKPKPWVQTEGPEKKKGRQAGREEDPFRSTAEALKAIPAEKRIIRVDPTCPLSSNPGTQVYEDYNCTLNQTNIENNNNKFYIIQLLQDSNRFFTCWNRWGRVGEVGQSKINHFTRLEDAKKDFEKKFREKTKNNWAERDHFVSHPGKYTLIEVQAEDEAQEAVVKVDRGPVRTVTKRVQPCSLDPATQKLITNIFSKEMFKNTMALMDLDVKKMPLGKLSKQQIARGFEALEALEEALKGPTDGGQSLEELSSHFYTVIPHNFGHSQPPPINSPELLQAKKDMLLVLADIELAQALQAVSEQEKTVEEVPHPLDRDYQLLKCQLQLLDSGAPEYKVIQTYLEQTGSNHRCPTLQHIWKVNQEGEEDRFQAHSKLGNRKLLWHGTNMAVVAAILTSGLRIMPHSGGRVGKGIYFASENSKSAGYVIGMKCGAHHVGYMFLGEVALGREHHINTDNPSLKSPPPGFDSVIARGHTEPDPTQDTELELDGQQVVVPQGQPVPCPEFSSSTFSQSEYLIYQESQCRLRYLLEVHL
pKd: −log10 of the molar value.
result-type: pKd

query: For the compound shown here, NC(N)=NCCC[C@H](NCN1CCN(C(=O)c2cc(Cc3n[nH]c(=O)c4ccccc34)ccc2F)CC1)C(=O)O [PPNR-4] , give the reported pKd.
result: < 5.00

* * *

Measured Kd on PARP1 (Homo sapiens, UniProt P09874) follows.
Sequence (P09874 whole entry): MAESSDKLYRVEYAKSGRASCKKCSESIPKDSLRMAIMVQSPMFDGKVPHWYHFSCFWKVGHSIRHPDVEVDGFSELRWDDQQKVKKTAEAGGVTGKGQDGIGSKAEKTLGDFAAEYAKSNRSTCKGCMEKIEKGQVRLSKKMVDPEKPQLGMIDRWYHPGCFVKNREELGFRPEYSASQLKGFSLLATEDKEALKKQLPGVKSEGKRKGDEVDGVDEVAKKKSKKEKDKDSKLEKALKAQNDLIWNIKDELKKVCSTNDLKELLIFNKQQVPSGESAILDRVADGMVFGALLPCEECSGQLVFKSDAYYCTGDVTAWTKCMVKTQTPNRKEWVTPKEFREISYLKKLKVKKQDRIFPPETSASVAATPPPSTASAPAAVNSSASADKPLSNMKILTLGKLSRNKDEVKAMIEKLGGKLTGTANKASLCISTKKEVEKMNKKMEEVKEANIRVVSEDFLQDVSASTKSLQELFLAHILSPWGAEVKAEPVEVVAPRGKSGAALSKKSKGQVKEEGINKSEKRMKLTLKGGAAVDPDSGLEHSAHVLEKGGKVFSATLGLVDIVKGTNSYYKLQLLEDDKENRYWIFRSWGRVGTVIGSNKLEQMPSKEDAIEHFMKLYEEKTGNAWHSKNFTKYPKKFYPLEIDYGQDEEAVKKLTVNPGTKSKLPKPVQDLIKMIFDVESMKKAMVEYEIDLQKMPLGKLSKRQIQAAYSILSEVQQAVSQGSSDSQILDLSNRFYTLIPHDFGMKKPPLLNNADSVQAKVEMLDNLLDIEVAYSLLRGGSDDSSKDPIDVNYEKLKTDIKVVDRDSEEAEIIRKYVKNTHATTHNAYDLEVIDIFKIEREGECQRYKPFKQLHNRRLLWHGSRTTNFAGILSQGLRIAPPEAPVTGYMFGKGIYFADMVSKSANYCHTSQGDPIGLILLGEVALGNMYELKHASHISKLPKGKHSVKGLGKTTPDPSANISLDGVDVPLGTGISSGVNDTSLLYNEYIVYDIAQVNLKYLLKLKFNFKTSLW
Write down the numeric answer in nM and omit the unit.

query: For the molecule shown here, NC(N)=NCCC[C@H](NCN1CCN(C(=O)c2cc(Cc3n[nH]c(=O)c4ccccc34)ccc2F)CC1)C(=O)O [PPNR-4] , give the reported Kd.
result: 7.15

query: Same thing, different molecule: CN(CCNC(=O)c1cc(Cc2n[nH]c(=O)c3ccccc23)ccc1F)CN[C@@H](CCCN=C(N)N)C(=O)O [PPNR-5]
result: 40

* * *

target: UniProtKB Q13043
Sequence (Q13043 whole entry): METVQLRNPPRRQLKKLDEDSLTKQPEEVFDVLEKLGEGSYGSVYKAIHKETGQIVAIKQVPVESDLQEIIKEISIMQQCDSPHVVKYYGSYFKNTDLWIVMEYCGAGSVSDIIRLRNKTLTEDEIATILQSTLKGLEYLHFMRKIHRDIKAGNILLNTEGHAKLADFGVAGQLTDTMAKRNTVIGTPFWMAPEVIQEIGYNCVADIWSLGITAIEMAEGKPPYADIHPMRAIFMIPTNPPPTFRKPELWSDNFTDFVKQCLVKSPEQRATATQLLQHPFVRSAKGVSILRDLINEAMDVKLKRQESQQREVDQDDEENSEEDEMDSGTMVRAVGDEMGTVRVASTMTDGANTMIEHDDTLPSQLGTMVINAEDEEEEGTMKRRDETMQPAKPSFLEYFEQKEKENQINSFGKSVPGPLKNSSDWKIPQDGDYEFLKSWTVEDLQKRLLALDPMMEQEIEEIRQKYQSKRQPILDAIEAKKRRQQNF
result-type: IC50

query: For the molecule shown here, `NC(N)=NCCC[C@H](NCN1CCN(C(=O)c2cc(Cc3n[nH]c(=O)c4ccccc34)ccc2F)CC1)C(=O)O` , give the reported IC50.
result: > 10 µM
